# Test system: Aspergillus niger
# assayNotes: Antifungal activity against Aspergillus niger MTCC 2546 at 1500 ug/ml after 18 hr by cup-plate method
# Type: functional
# recordedConditions: MTCC 2546, 18 h, read-out: DIZ
Recorded zone of inhibition at 1500 µg/mL values for a group of compounds are listed next.
API: value field is a number in mm; no unit string.

The following compounds have reported results that may help.
Cc1cc(/N=C/c2cccc3ccccc23)no1
21
C(=N\c1ccccn1)/c1cccc2ccccc12
15
Clc1ccc(/N=C/c2cccs2)cc1
18

For record Clc1ccc(/N=C\c2cccc3ccccc23)cc1 the listed zone of inhibition at 1500 µg/mL is 15

// data source = ChEMBL document CHEMBL3045835
